- CONDITION SET: Sesame oil; heating temp. 60 °C, obs. temp. 40 °C
MEASURED ATTRIBUTE: Approximate Solubility (mg/mL) in Excipient: Sesame oil

>>> readout_value("CCCCCCCC/C=C\\CCCCCCCCCCCC(=O)Oc1ccc2c3c1O[C@H]1C(=O)CC[C@@]4(O)C(C2)N(CC2CC2)CC[C@]314 [Compound 22]")
">401.9 mg/mL"

For every record below, what is its Approximate Solubility (mg/mL) in Excipient: Sesame oil?
1. C=C1CC[C@@]2(O)C3Cc4ccc(OC(=O)CCCCCCCCCCCCCCC)c5c4[C@@]2(CCN3CC2CC2)[C@H]1O5 [Compound 56]
2. C=C1CC[C@@]2(O)C3Cc4ccc(OC(=O)CCCCCCCCCCCCCCCCCCCCC)c5c4[C@@]2(CCN3CC2CC2)[C@H]1O5 [Compound 14]

1. 25 to 50 mg/mL
2. <25 mg/mL

###

- ASSAY PROTOCOL: physchem
- CONDITION SET: 25 °C, oil or lipid, thermodynamic from solid, Approximate Solubility (mg/mL) in Excipient: Sesame oil, Sesame oil; heating temp. 60 °C, obs. temp. 25 °C
MEASURED ATTRIBUTE: solubility at 24 h

GET /values?readout=solubility at 24 h&item= C=C1CC[C@@]2(O)C3Cc4ccc(OC(=O)CCCCCCCCCCC)c5c4[C@@]2(CCN3CC2CC2)[C@H]1O5 [Compound 59, reference compound]
> 393 mg/mL

###

Provide the recorded Approximate Solubility (mg/mL) in Excipient: Cottonseed oil for the entries that follow.
- CONDITION SET: Cottonseed oil; heating temp. 40 °C, obs. temp. 40 °C

Some solved entries appear below for comparison.
>>> readout_value("C=C1CC[C@@]2(O)C3Cc4ccc(OC(=O)CCCCCCCCCCCCCCCCCCCCC)c5c4[C@@]2(CCN3CC2CC2)[C@H]1O5")
"<50 mg/mL"
>>> readout_value("C=C1CC[C@@]2(O)C3Cc4ccc(OC(=O)CCCCCCCCCCCCCCCCCCC)c5c4[C@@]2(CCN3CC2CC2)[C@H]1O5")
"57 to 67 mg/mL"
>>> readout_value("C=C1CC[C@@]2(O)C3Cc4ccc(OC(=O)CCCCCCC/C=C\\CCCCCCCC)c5c4[C@@]2(CCN3CC2CC2)[C@H]1O5")
">418.7 mg/mL"
>>> readout_value("C=C1CC[C@@]2(O)C3Cc4ccc(OC(=O)OCCCCCCCCCCCCCCCC)c5c4[C@@]2(CCN3CC2CC2)[C@H]1O5")
"67 to 80 mg/mL"

Next, consider the following compound.
GET /values?readout=Approximate Solubility (mg/mL) in Excipient: Cottonseed oil&item= `C=C1CC[C@@]2(O)C3Cc4ccc(OC(=O)CCCCCCC/C=C/CCCCCCCC)c5c4[C@@]2(CCN3CC2CC2)[C@H]1O5`
<51 mg/mL

###

- ASSAY PROTOCOL: Plasma stability assay, rat plasma
- Assay type: in vitro ADME
- CONDITION SET: 10 μM, 37° C., 480 min
MEASURED ATTRIBUTE: % remaining at time point
Give me the value, and tack the unit on after it.

>>> readout_value("CCCCCCCCCCCCCC(=O)Oc1ccc2c3c1O[C@H]1C(=O)CC[C@@]4(O)C(C2)N(CC2CC2)CC[C@]314")
"1.2%"

For every record below, what is its % remaining at time point?
1. C=C1CC[C@@]2(O)C3Cc4ccc(OCOC(=O)OCCCCCCCCCCCCCC)c5c4[C@@]2(CCN3CC2CC2)[C@H]1O5
2. C=C1CC[C@@]2(O)C3Cc4ccc(OCOC(=O)OCCCCCCCCCCCC)c5c4[C@@]2(CCN3CC2CC2)[C@H]1O5

62.2%
8.2%

For every record below, what is its % remaining at time point?
1. CCCCCCCCCCCCCCC(=O)Oc1ccc2c3c1O[C@H]1C(=O)CC[C@@]4(O)C(C2)N(CC2CC2)CC[C@]314
2. C=C1CC[C@@]2(O)C3Cc4ccc(OC(=O)CCCCCCCCCCCCCCCCCCCCC)c5c4[C@@]2(CCN3CC2CC2)[C@H]1O5
3. CCCCCCCCCCCCCCCCOC(=O)Oc1ccc2c3c1O[C@H]1C(=O)CC[C@@]4(O)C(C2)N(CC2CC2)CC[C@]314

1. 2.9%
2. 107%
3. 59.8%

// provenance: patent US10533015B1
